Below, each entry is listed alongside its reported IC50.
molecular target: UniProt:P53634; assay: Activity on human recombinant DPP1 isolated enzyme assay (H-Gly-Arg-AMC cleavage, fluorescence); assay type: biochemical; conditions: 0.35 nM human DPP1, 300 μM H-Gly-Arg-AMC, 30 min pre-incubation at 25° C., pH 5.0; read-out: h DPP1 pIC50 (converted)
Sequence (P53634 231-394): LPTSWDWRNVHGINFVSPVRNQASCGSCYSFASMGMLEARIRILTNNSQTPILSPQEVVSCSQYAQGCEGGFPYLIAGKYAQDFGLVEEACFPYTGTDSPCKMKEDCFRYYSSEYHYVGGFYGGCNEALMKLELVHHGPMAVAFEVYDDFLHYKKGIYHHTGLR
Sequence (P53634 25-134): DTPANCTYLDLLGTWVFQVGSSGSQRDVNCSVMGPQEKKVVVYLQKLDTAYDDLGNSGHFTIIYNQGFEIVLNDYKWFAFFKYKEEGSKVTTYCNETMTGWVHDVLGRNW
Sequence (P53634 395-463): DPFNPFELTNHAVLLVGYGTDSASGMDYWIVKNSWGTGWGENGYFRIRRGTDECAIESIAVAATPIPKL

Study these solved cases before continuing.
N#Cc1ccc(-c2ccc(C[C@@H](C#N)NC(=O)C3(C(F)(F)F)CNC3)cc2)cc1 [Example 17] | 10 to 100 nM
COC1(C(=O)N[C@H](C#N)Cc2ccc(-c3ccc(C#N)cc3)cc2)CNC1C (some centres unmarked) [Example 31] | 100 to 1000 nM

(Q) Which IC50 is listed for N#Cc1ccc(-c2ccc(C[C@@H](C#N)NC(=O)C3(O)CNC3)cc2)cc1 [Example 1] ?
(A) 100 to 1000 nM

(Q) Queued: CSC1(C(=O)N[C@H](C#N)Cc2ccc(-c3ccc(C#N)cc3)cc2)CNC1 [Example 18]
(A) 10 to 100 nM

(Q) Also N#Cc1ccc(-c2ccc(C[C@@H](C#N)NC(=O)C3(C(F)F)CNC3)c(F)c2)cc1 [Example 13] ?
(A) 10 to 100 nM

(Q) Could you do the same for COC1(C(=O)N[C@H](C#N)Cc2ccc(-c3ccc4c(c3)N(C)C(=O)C4)cc2)CNC1 [Example 22] , please?
(A) 10 to 100 nM

(Q) Lookup CC(C)OC1(C(=O)N[C@H](C#N)Cc2ccc(-c3ccc(C#N)cc3)cc2)CNC1 [Example 26]
(A) 1000 to 10000 nM

(Q) Do the same for CN1CC(C(=O)N[C@H](C#N)Cc2ccc(-c3ccc4c(c3)C3(CCN(C5COC5)CC3)OC4)cc2F)(C(F)F)C1 [Example 39] please
(A) 10 to 100 nM
